- TARGET_SYSTEM: T1, B3GNT2 (Homo sapiens, UniProt Q9NY97)
- T1 construct: The respective ORFs of candidate genes [CD274 (NM_014143), MCL1 (NM_021960), JUNB (NM_002229), and B3GNT2 (NM_006577)] were synthesized; expressed in transfected cells; host or cells: A375 melanoma cells (lentiviral ORF overexpression)
- T1 sequence (Q9NY97 1-397): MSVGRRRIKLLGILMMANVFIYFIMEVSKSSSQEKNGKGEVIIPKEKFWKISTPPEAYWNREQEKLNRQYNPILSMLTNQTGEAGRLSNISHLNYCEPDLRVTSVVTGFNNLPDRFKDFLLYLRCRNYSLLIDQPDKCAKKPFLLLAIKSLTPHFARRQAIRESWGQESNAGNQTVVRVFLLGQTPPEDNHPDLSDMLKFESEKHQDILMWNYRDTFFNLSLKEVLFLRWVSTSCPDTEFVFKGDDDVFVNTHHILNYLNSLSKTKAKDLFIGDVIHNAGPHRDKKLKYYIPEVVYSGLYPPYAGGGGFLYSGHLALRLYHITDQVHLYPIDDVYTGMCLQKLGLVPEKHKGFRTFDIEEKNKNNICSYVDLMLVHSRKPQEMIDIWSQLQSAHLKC
- ASSAY_OVERVIEW: Co-IP of FLAG-tagged B3GNT2 followed by mass spectrometry
- Type: cell-based
- Parameters: unit not given here
- EXPERIMENTAL_CONTEXT: Co-IP with FLAG antibody, C-terminally FLAG-tagged B3GNT2; mass spectrometry count, unit not given
QUANTITY_KIND: C-term flag
Answers are plain numbers.

Consider the worked cases shown below.
1) FAM3A (protein) FPRIQQLFTSPESSVTAAPRARKYKCGLPQPCPEEHLAFRVVSGAANVIGPKICLEDKMLMSSVKDNVGRGLNIALVNGVSGELIEARAFDMWAGDVNDLLKFIRPLHEGTLVFVASYDDPATKMNEETRKLFSELGSRNAKELAFRDSWVFVGAKGVQNKSPFEQHVKNSKHSNKYEGWPEALEMEGCIPRRSTAS    18
2) SDF4 (protein) RPANHSSTRERVANREENEILPPDHLNGVKLEMDGHLNRGFHQEVFLGKDLGGFDEDAEPRRSRRKLMVIFSKVDVNTDRKISAKEMQRWIMEKTAEHFQEAMEESKTHFRAVDPDGDGHVSWDEYKVKFLASKGHSEKEVADAIRLNEELKVDEETQEVLENLKDRWYQADSPPADLLLTEEEFLSFLHPEHSRGMLRFMVKEIVRDLDQDGDKQLSVPEFISLPVGTVENQQGQDIDDNWVKDRKKEFEELIDSNHDGIVTAEELESYMDPMNEYNALNEAKQMIAVADENQNHHLEPEEVLKYSEFFTGSKLVDYARSVHEEF    7

Kindly consider the entry below.
# input Retrieve C-term flag measured for DPM1 (protein, UniProt O60762 2-260, looked up) Dolichol-phosphate …: ASLEVSRSPRRSRRELEVRSPRQNKYSVLLPTYNERENLPLIVWLLVKSFSESGINYEIIIIDDGSPDGTRDVAEQLEKIYGSDRILLRPREKKLGLGTAYIHGMKHATGNYIIIMDADLSHHPKFIPEFIRKQKEGNFDIVSGTRYKGNGGVYGWDLKRKIISRGANFLTQILLRPGASDLTGSFRLYRKEVLEKLIEKCVSKGYVFQMEMIVRARQLNYTIGEVPISFVDRVYGESKLGGNEIVSFLKGLLTLFATT and print it.
# output 8
